Numbers sourced from ChEMBL document CHEMBL4028820.

Provide the recorded MIC for the entries that follow.
tested on: Staphylococcus epidermidis; assay: Antibacterial activity against Staphylococcus epidermidis ATCC 12228 after 20 to 24 hrs by broth microdilution method; format: functional
Numbers only, in µg/mL.

| compound | study-system | reading-unit | MIC |
| --- | --- | --- | --- |
| NCC[C@H](O)C(=O)N[C@@H]1C[C@H](N)[C@@H](O[C@H]2O[C@H](CN)[C@@H](O)[C@H](O)[C@H]2O)[C@H](O)[C@H]1O[C@H]1O[C@H](CO)[C@@H](O)[C@H](N)[C@H]1O [AMIKACIN] | Staphylococcus epidermidis | µg/mL | 2.5 |

Query compound follows.
Q. For the compound CC(C)CC[C@H](O)[C@@H]1C(=O)OC[C@H]1CO , give its reported MIC.
A. 128

----------
system: Enterococcus faecalis; assay: Antibacterial activity against Enterococcus faecalis ATCC 51299 after 20 to 24 hrs by broth microdilution method; type: functional
assay-metric: MIC (µg/mL)
One number for each entry, in µg/mL.

| compound | MIC / µg/mL |
| --- | --- |
| CC1=C2C(O)C(C(C)CO)CCC2(C)C=CC1=O (stereo not given) | 128 |
| CC(C)CC[C@H](O)[C@@H]1C(=O)OC[C@H]1CO | 128 |
| C[C@H]1COc2c(N3CCN(C)CC3)c(F)cc3c(=O)c(C(=O)O)cn1c23.C[C@H]1COc2c(N3CCN(C)CC3)c(F)cc3c(=O)c(C(=O)O)cn1c23.O [LEVOFLOXACIN] | 0.156 |

# input for lookup
Q. Return value of MIC for input NCC[C@H](O)C(=O)N[C@@H]1C[C@H](N)[C@@H](O[C@H]2O[C@H](CN)[C@@H](O)[C@H](O)[C@H]2O)[C@H](O)[C@H]1O[C@H]1O[C@H](CO)[C@@H](O)[C@H](N)[C@H]1O [AMIKACIN] , no commentary.
A. 0.39

----------
test system: Pseudomonas aeruginosa; assay: Antibacterial activity against Pseudomonas aeruginosa ATCC 10145 after 20 to 24 hrs by broth microdilution method; format: functional
assay-metric: MIC (µg/mL)
Answers are plain numbers, in µg/mL.

| compound | reading-unit | MIC |
| --- | --- | --- |
| NCC[C@H](O)C(=O)N[C@@H]1C[C@H](N)[C@@H](O[C@H]2O[C@H](CN)[C@@H](O)[C@H](O)[C@H]2O)[C@H](O)[C@H]1O[C@H]1O[C@H](CO)[C@@H](O)[C@H](N)[C@H]1O | µg/mL | 2.5 |

Give MIC for each listed item.
1. CC(C)CC[C@H](O)[C@@H]1C(=O)OC[C@H]1CO
2. CC1=C2C(O)C(C(C)CO)CCC2(C)C=CC1=O (stereo not given)

A.
[32, 64]

----------
Answer each item with its documented IC50.
tested on: A549; assay: Antiproliferative activity against human A549 cells after 48 hrs by MTT assay; format: functional, cell-based; conditions: A549, 48 h

| compound | study-system | IC50 |
| --- | --- | --- |
| O=c1[nH]cc(F)c(=O)[nH]1 | A549 | 15.1 µM |

Answer for every listed entry: what is its IC50? The entries follow.
1. CC(C)CC[C@H](O)[C@@H]1C(=O)OC[C@H]1CO
2. CCCCOC(=O)c1ccccc1C(=O)OCC(C)C
3. CC1=C2C(O)C(C(C)CO)CCC2(C)C=CC1=O (centres undefined)

A.
1: 71.5 µM; 2: 38 µM; 3: 22.3 µM
